Target: JR-FL gp120 ΔV1/ΔV2 (HIV-1 (isolate JR-FL))
Experiment: ELISA on coated gp120; EC50 by nonlinear regression
OBSERVED_PROPERTY: EC50 (µg/mL)

>>> reported_measurement("PGT-127 (antibody, V domains shown) VH: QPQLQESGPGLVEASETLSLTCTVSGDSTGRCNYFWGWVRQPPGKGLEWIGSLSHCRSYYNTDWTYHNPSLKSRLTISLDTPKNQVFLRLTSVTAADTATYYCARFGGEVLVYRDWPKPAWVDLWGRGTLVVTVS VL: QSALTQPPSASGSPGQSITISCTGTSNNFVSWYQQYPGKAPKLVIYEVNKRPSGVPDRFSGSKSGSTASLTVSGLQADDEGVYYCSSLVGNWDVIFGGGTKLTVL")
0.7
>>> reported_measurement("PGT-126 (antibody, V domains shown) VH: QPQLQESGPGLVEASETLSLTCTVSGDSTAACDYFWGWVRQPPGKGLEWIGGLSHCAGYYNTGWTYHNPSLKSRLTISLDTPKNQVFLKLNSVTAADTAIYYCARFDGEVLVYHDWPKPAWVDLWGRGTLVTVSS VL: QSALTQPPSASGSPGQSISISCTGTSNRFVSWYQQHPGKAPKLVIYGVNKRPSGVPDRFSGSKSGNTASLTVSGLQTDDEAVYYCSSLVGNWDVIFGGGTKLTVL")
0.3
>>> reported_measurement("PGT-137 (antibody, V domains shown) VH: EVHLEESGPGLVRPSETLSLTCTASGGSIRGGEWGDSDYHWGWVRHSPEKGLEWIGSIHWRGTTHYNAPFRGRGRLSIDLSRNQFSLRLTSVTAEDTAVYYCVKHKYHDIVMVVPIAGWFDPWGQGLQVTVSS VL: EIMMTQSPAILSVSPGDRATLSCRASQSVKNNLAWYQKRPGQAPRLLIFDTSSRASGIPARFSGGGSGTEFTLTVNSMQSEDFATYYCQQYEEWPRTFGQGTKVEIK")
0.2
